Origin of values: patent US6548521B1

# Test system: Plasmodium falciparum clone from CDC/Indochina III (W-2)
# EXPERIMENT: WRAIR in vitro antimalarial serial dilution assay ([3H]-hypoxanthine incorporation)
# Type: cell-based
# EXPERIMENTAL_CONTEXT: Plasmodium falciparum; similar tests
MEASURED_PROPERTY: IC50

Which IC50 value belongs to CCN(CC)CCCC(C)Nc1ccnc2cc(Cl)ccc12 (stereo not shown) [Chloroquine, chloroquine, reference compound] ?
200 to 400 nM

* * *

# pIC50 per entry
# Tested on: Plasmodium falciparum clone from CDC/Indochina III (W-2)
# EXPERIMENT: WRAIR in vitro antimalarial serial dilution assay ([3H]-hypoxanthine incorporation)
# Type: cell-based
# EXPERIMENTAL_CONTEXT: read-out: IC50
// field semantics: pIC50 = negative decimal log of concentration (mol/L)

// worked examples, pIC50 included
Look at this molecule and give its reported pIC50. "COc1ccc(/C=C/C(=O)c2cccnc2)c(OC)c1"
5.14

For "O=C(/C=C/c1ccc(Cl)c([N+](=O)[O-])c1)c1ccccn1" , what is its reported pIC50?
5.09

Further cases:
Request the reported pIC50 associated with "COc1ccc(/C=C/C(=O)c2ccccn2)c(OC)c1"
5.34

* * *

# Test system: Plasmodium falciparum clone from CDC/Indochina III (W-2)
# EXPERIMENT: WRAIR in vitro antimalarial serial dilution assay ([3H]-hypoxanthine incorporation)
# Format: cell-based
# EXPERIMENTAL_CONTEXT: Plasmodium falciparum, Table II, formula IV; * run: chloroquine 0.2-0.4 μM
MEASURED_PROPERTY: IC50

// lookup IC50 for CCN(CC)CCCC(C)Nc1ccnc2cc(Cl)ccc12 (stereo not shown) [Chloroquine, chloroquine, reference compound]
200 to 400 nM
